Molecular target: BuChE from equine serum (EqBuChE) (Equus caballus, UniProt P81908)
Construct: butyrylcholinesterase was from an equine serum; purchased Sigma-Aldrich (Prague, Czech Republic); host or cells: equine serum (natural source)
Sequence (P81908 whole entry): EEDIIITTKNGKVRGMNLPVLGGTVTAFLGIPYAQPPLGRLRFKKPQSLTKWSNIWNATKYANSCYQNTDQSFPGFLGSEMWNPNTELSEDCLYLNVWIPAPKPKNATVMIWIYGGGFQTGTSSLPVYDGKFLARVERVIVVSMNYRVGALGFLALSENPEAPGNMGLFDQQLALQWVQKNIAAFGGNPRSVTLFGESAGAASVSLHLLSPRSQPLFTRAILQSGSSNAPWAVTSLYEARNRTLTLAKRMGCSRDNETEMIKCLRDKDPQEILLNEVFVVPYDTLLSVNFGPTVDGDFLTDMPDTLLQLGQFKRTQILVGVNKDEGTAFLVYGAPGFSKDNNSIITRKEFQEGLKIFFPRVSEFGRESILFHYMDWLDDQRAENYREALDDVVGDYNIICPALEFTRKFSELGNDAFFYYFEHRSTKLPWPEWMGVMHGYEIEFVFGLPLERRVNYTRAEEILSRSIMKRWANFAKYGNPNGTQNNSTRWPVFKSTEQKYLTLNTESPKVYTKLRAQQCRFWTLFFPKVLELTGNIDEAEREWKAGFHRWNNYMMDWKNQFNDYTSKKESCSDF
Test: Inhibition of BuChE, modified Ellman's spectrophotometric method
Format: biochemical
Settings: mean ± SD, n = three experiments; read-out: IC50 (EqBuChE)
Procedure: The IC50 values were determined using the spectrophotometric Ellman’s method modified according to Zdražilová et al., which is a simple, rapid and direct method to determine the SH and -S-S- group content in proteins. […] Thirty-six benzamides 1–4l were evaluated as potential inhibitors of AChE from electric eel (EeAChE) and BuChE from equine serum (EqBuChE) using Ellman’s spectrophotometric method modified according to Zdražilová et al.. […]
MEASURED_ENDPOINT: IC50 (µM)
One number for each entry, in µM.

Study these solved cases before continuing.
MOLECULE: O=C(Nc1cccc(Br)c1)c1ccc(Cl)cc1O
RESULT_UNITS: µM
IC50: 168

MOLECULE: O=C(Nc1ccc(Cl)c(Cl)c1)c1cc(Cl)ccc1O
RESULT_UNITS: µM
IC50: 186

Please state, for each entry, its recorded IC50.
1. O=C(Nc1cccc(Cl)c1)c1cc(Cl)ccc1O
2. O=C(Nc1ccc(Cl)c(Cl)c1)c1ccc(Cl)cc1O
3. O=C1c2ccc(Cl)cc2OP(=O)(c2ccccc2)N1c1ccc(C(F)(F)F)cc1 (racemic)

[228, 100, 25]

====

Answer each item with its documented IC50.
Target: AChE from electric eel (EeAChE) (Electrophorus electricus)
Construct: Acetylcholinesterase was obtained from electric eel (Electrophorus electricus L.); purchased Sigma-Aldrich (Prague, Czech Republic); host or cells: electric eel (natural source)
Test: Inhibition of AChE, modified Ellman's spectrophotometric method
Format: biochemical, electric eel (Electrophorus electricus L.)
One number for each entry, in µM.

SMILES_ENTRY: O=C(Nc1cccc(Cl)c1)c1cc(Br)ccc1O
MEAS_VALUE: 62

SMILES_ENTRY: O=C(Nc1ccc(Cl)cc1)c1cc(Br)ccc1O
MEAS_VALUE: 85.8

SMILES_ENTRY: O=C(Nc1ccc(C(F)(F)F)cc1)c1cc(Br)ccc1O
MEAS_VALUE: 44.8

SMILES_ENTRY: O=C(Nc1cccc(Cl)c1)c1ccc(Cl)cc1O
MEAS_VALUE: 58.1

SMILES_ENTRY: O=C(Nc1ccc(C(F)(F)F)cc1)c1ccc(Cl)cc1O
MEAS_VALUE: 60.3

Please state, for each entry, its recorded IC50.
1. O=C(Nc1ccc(Cl)cc1)c1ccc(Cl)cc1O
2. O=C(Nc1ccc(F)cc1)c1cc(Br)ccc1O
3. O=C(Nc1cc(C(F)(F)F)cc(C(F)(F)F)c1)c1cc(Br)ccc1O
4. O=C(Nc1cccc(F)c1)c1ccc(Cl)cc1O
5. O=C(Nc1cccc(Br)c1)c1cc(Cl)ccc1O

56.2
61.2
48.5
60.8
50

====

Answer each item with its documented IC50.
Biological target: AChE from electric eel (EeAChE) (Electrophorus electricus, UniProt O42275)
Construct: Acetylcholinesterase was obtained from electric eel (Electrophorus electricus L.); purchased Sigma-Aldrich (Prague, Czech Republic); host or cells: electric eel (natural source)
Sequence (O42275 24-633): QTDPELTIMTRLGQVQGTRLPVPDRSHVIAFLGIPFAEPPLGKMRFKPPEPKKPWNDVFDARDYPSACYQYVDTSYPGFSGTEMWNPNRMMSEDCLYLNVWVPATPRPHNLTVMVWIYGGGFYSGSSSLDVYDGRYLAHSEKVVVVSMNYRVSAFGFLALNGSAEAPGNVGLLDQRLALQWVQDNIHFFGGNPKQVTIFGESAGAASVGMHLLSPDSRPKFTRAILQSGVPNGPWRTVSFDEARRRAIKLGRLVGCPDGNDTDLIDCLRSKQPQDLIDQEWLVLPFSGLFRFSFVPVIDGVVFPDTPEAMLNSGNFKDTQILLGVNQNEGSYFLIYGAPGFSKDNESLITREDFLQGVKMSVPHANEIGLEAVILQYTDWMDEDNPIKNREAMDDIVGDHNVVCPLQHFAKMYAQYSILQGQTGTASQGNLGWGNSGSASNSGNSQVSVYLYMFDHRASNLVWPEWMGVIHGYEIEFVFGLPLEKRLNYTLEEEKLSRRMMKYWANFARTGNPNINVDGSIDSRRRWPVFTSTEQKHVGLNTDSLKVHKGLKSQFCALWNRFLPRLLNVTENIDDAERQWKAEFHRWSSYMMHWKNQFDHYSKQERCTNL
Assay: Inhibition of AChE, modified Ellman's spectrophotometric method
Assay type: biochemical, electric eel (Electrophorus electricus L.)
One number for each entry, in µM.

Study these solved cases before continuing.
COMPOUND: O=C(Nc1cccc(C(F)(F)F)c1)c1ccc(Cl)cc1O [Compound 3j]
IC50 [µM]: 68.3

COMPOUND: O=C(Nc1cccc(C(F)(F)F)c1)c1cc(Br)ccc1O [Compound 4j]
IC50 [µM]: 42.7

COMPOUND: O=C(Nc1cccc(C(F)(F)F)c1)c1cc(Cl)ccc1O [Compound 2j]
IC50 [µM]: 54.4

COMPOUND: O=C(Nc1ccc(F)cc1)c1ccc(Cl)cc1O [Compound 3i]
IC50 [µM]: 62.8

COMPOUND: O=C(Nc1cccc(Br)c1)c1cc(Br)ccc1O [Compound 4f]
IC50 [µM]: 69.7

COMPOUND: O=C(Nc1ccc(Br)cc1)c1ccc(Cl)cc1O [Compound 3g]
IC50 [µM]: 58.3

COMPOUND: O=C(Nc1ccc(F)cc1)c1cc(Cl)ccc1O [Compound 2i]
IC50 [µM]: 48.3

COMPOUND: O=C(Nc1ccc(Cl)cc1)c1cc(Cl)ccc1O [Compound 2b]
IC50 [µM]: 76.5

COMPOUND: O=C(Nc1cccc(F)c1)c1cc(Br)ccc1O [Compound 4h]
IC50 [µM]: 54.4

Please report the measured IC50 for O=C(Nc1cccc(F)c1)c1cc(Cl)ccc1O [Compound 2h]
58.6

====

Molecular target: AChE from electric eel (EeAChE) (Electrophorus electricus, UniProt O42275)
Construct: Acetylcholinesterase was obtained from electric eel (Electrophorus electricus L.); purchased Sigma-Aldrich (Prague, Czech Republic); host or cells: electric eel (natural source)
Assay: Inhibition of AChE, modified Ellman's spectrophotometric method
Format: biochemical, electric eel (Electrophorus electricus L.)
Conditions: SI = IC50 for AChE/IC50 for BuChE; SI lower than 1 means selectivity for AChE
MEASURED_ENDPOINT: Selectivity AChE/BuChE
Give bare numbers.

Please state, for each entry, its recorded Selectivity AChE/BuChE.
1. O=C(Nc1ccc(F)cc1)c1ccc(Cl)cc1O
2. O=C(Nc1cccc(C(F)(F)F)c1)c1cc(Cl)ccc1O
3. O=C(Nc1ccc(F)cc1)c1cc(Br)ccc1O
4. O=C(Nc1cc(C(F)(F)F)cc(C(F)(F)F)c1)c1ccc(Cl)cc1O

0.41
0.45
0.45
0.36

Please state, for each entry, its recorded Selectivity AChE/BuChE.
1. O=C(Nc1ccc(Br)cc1)c1ccc(Cl)cc1O
2. O=C(Nc1cc(C(F)(F)F)cc(C(F)(F)F)c1)c1cc(Cl)ccc1O
3. O=C(Nc1ccc(Cl)cc1)c1cc(Cl)ccc1O

1. 0.34
2. 0.78
3. 0.45

Please state, for each entry, its recorded Selectivity AChE/BuChE.
1. O=C(Nc1ccc(Cl)c(Cl)c1)c1ccc(Cl)cc1O
2. O=C1c2ccc(Cl)cc2OP(=O)(c2ccccc2)N1c1ccc(C(F)(F)F)cc1 (racemic)
3. O=C(Nc1cc(Cl)c(Cl)c(Cl)c1)c1cc(Br)ccc1O
4. O=C(Nc1cccc(Br)c1)c1ccc(Cl)cc1O
5. O=C(Nc1ccc(Cl)cc1)c1ccc(Cl)cc1O
6. O=C(Nc1cccc(Cl)c1)c1cc(Br)ccc1O
7. O=C(Nc1cc(Cl)c(Cl)c(Cl)c1)c1ccc(Cl)cc1O

1. 0.46
2. 1.93
3. 0.30
4. 0.36
5. 0.37
6. 0.46
7. 0.44

Please state, for each entry, its recorded Selectivity AChE/BuChE.
1. O=C(Nc1ccc(F)cc1)c1cc(Cl)ccc1O
2. O=C(Nc1cc(Cl)c(Cl)c(Cl)c1)c1cc(Cl)ccc1O
3. O=C(Nc1cccc(Cl)c1)c1ccc(Cl)cc1O
4. O=C(Nc1cccc(F)c1)c1ccc(Cl)cc1O

1: 0.36; 2: 0.50; 3: 0.43; 4: 0.42

====

Answer each item with its documented IC50.
Biological target: AChE from electric eel (EeAChE) (Electrophorus electricus, UniProt O42275)
Construct: Acetylcholinesterase was obtained from electric eel (Electrophorus electricus L.); purchased Sigma-Aldrich (Prague, Czech Republic); host or cells: electric eel (natural source)
Assay: Inhibition of AChE, modified Ellman's spectrophotometric method
Format: biochemical, electric eel (Electrophorus electricus L.)
Details: mean ± SD, n = three experiments; read-out: IC50 (EeAChE)
Answer with the number, then the unit.

COMPOUND: O=C(Nc1cccc(Cl)c1)c1cc(Cl)ccc1O [Compound 2a]
IC50: 59.5 µM

COMPOUND: CCOP(OCC)Oc1cc(Cl)ccc1C(=O)Nc1ccc(C(F)(F)F)cc1 [Compound 5c]
IC50: 66.4 µM

COMPOUND: O=C(Nc1cc(C(F)(F)F)cc(C(F)(F)F)c1)c1cc(Cl)ccc1O [Compound 2l]
IC50: 50.2 µM

COMPOUND: O=C(Nc1ccc(Br)cc1)c1cc(Cl)ccc1O [Compound 2g]
IC50: 58.2 µM

Shift focus to the following entry.
Enter measured IC50, system AChE from electric eel (EeAChE) (Electrophorus electricus, UniProt O42275), for the compound shown: O=C1c2ccc(Cl)cc2OP(=O)(c2ccccc2)N1c1ccc(C(F)(F)F)cc1 (racemic) [Compound 5d]
48.1 µM

====

Biological target: AChE from electric eel (EeAChE) (Electrophorus electricus, UniProt O42275)
Construct: Acetylcholinesterase was obtained from electric eel (Electrophorus electricus L.); purchased Sigma-Aldrich (Prague, Czech Republic); host or cells: electric eel (natural source)
Assay: Inhibition of AChE, modified Ellman's spectrophotometric method
Type: biochemical, electric eel (Electrophorus electricus L.)
Conditions: SI = IC50 for AChE/IC50 for BuChE; SI lower than 1 means selectivity for AChE
MEASURED_ENDPOINT: Selectivity AChE/BuChE
Answers are plain numbers.

COMPOUND: O=C(Nc1ccc(Br)cc1)c1cc(Br)ccc1O
SYSTEM_NAME: AChE from electric eel (EeAChE) (Electrophorus electricus, UniProt O42275)
MEASURED_ENDPOINT: Selectivity AChE/BuChE
MEAS_VALUE: 0.63
--
COMPOUND: O=C(Nc1cccc(C(F)(F)F)c1)c1ccc(Cl)cc1O
SYSTEM_NAME: AChE from electric eel (EeAChE) (Electrophorus electricus, UniProt O42275)
MEASURED_ENDPOINT: Selectivity AChE/BuChE
MEAS_VALUE: 0.42

Please state, for each entry, its recorded Selectivity AChE/BuChE.
1. O=C(Nc1ccc(C(F)(F)F)cc1)c1cc(Br)ccc1O
2. O=C1c2ccc(Cl)cc2OP(=S)(c2ccccc2)N1c1ccc(C(F)(F)F)cc1 (racemic)
3. O=C(Nc1ccc(Cl)cc1)c1cc(Br)ccc1O

[0.33, 0.37, 0.66]

The values you see were collected from paper PMC6920847.
